Provenance of the data: PubChem BioAssay

# tested.target: Luciferin 4-monooxygenase (Photinus pyralis) (UniProt P08659)
# Sequence (P08659 whole entry, looked up): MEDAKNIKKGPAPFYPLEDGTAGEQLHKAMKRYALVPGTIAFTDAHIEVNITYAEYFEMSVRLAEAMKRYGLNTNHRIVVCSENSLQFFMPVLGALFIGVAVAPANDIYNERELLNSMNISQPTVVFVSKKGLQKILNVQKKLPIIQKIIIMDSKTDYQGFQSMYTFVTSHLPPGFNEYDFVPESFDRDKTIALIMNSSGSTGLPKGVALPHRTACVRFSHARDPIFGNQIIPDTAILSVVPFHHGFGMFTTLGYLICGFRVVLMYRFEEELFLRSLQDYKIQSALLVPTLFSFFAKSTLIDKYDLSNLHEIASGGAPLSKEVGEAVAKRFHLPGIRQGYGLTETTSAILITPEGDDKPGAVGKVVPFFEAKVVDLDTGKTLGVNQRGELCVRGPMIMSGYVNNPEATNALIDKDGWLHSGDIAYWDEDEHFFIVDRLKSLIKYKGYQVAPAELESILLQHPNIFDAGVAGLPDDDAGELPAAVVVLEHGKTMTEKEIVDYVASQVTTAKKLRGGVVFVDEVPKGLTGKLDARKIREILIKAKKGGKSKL
# test.name: inhibition of purified Photinus pyralis luciferase – biochemical, luminescence, purified enzyme, 2006 set, primary screen (AID 1141);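 note: cell-free assay with purified firefly luciferase at 100 ng per well in PBS; test concentration not given here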
# measurement.context: purified firefly luciferase, SteadyGlo luminescence, 30 min; higher = more signal, called active from +8 up or from −8 down
Everything with z-score lower than -0.9 is 0; everything else, including exactly -0.9, is 1.

Solved entries:
{"molecule": "OCCCC1=CC(c2cccs2)N(Cc2cccc(OC(F)(F)F)c2)CC1 (stereo not given)", "class.label": 1}
{"molecule": "CCOC(=O)C[C@H]1[C@H](OC(=O)Cc2ccc3c(c2)OCO3)[C@@H](NC(=O)c2ccccc2)c2cc(OCCCO)ccc2N1C(=O)c1ccccc1", "class.label": 1}
{"molecule": "COC(=O)[C@@]1(Cc2ccc(F)cc2)[C@H]2c3cc(C(=O)N(C)C)n(Cc4ccc(C)c(F)c4F)c3C[C@H]2CN1C(=O)c1ccccc1", "class.label": 1}
{"molecule": "C=CCC(OC(C)=O)[C@@H]1[C@@H](N(Cc2ccc(-c3ccccc3)cc2)C(=O)Cc2ccc(OC)cc2)c2cc(OCCCO)ccc2N1C(=O)c1ccc(-c2ccccc2)cc1 (stereo not given in full)", "class.label": 1}
{"molecule": "O=[N+]([O-])c1ccc(C[n+]2ccc(-c3ccc(CO)cc3)cc2)o1", "class.label": 1}
{"molecule": "Cc1ccc(-c2cccc(=O)o2)cc1", "class.label": 0}

Q: Assess whether reported z-score for `CCCC=C(CCC)[C@@H](NS(=O)(=O)c1ccccc1)c1ccc(C(F)(F)F)cc1` sits at -0.9 or higher.
A: 1

Q: Assess whether reported z-score for `NC(=O)NCC#Cc1ccc2c(c1)[C@]1(C(=O)N2)[C@H](c2ccc(O)cc2)N2[C@H](c3ccccc3)[C@H](c3ccccc3)OC(=O)[C@H]2[C@@H]1C(=O)NC[C@H](O)c1ccccc1` sits at -0.9 or higher.
A: 1

Q: Assess whether reported z-score for O=C1OCCC=C[C@H]2OC34C=CCN(Cn5nnc6ccccc65)C(=O)[C@H]3N(CCCCCO)C(=O)[C@@H]4C12 (stereo not given in full) sits at -0.9 or higher.
A: 1

Q: Assess whether reported z-score for `COc1ccc([Si](C)(C)[C@H]2[C@H](CCn3cc(CCO)nn3)O[C@@]3(C(=O)N(Cc4cccc(N5C(=O)c6cccc7cccc5c67)c4)c4ccccc43)[C@@H]2C)cc1` sits at -0.9 or higher.
A: 0

Q: Assess whether reported z-score for `C=CC[C@]1(C(=O)N(C)C)N=C(c2ccc(OCCCO)cc2)O[C@H]1c1ccccc1` sits at -0.9 or higher.
A: 0

Q: Assess whether reported z-score for O=C1OCC=C[C@H]2OC34C=CCN(CCN5CCOCC5)C(=O)[C@H]3N(CCCCCO)C(=O)[C@@H]4[C@@H]12 (stereo not given in full) sits at -0.9 or higher.
A: 1

Q: Assess whether reported z-score for `CC(C)(C)OC(=O)CC[C@]1(C(=O)N2CCCCC2)N=C(c2ccc(OCCCO)cc2)O[C@H]1c1ccccc1CN=[N+]=[N-]` sits at -0.9 or higher.
A: 0

Q: Assess whether reported z-score for `COc1ccccc1CN1C(=O)c2ccccc2[C@@H](C(=O)NCC(C)C)[C@@H]1c1ccc(CO)cc1` sits at -0.9 or higher.
A: 1
